Tgt: Urotensin-2 receptor (Homo sapiens, UniProt Q9UKP6)
Sequence (Q9UKP6 whole entry): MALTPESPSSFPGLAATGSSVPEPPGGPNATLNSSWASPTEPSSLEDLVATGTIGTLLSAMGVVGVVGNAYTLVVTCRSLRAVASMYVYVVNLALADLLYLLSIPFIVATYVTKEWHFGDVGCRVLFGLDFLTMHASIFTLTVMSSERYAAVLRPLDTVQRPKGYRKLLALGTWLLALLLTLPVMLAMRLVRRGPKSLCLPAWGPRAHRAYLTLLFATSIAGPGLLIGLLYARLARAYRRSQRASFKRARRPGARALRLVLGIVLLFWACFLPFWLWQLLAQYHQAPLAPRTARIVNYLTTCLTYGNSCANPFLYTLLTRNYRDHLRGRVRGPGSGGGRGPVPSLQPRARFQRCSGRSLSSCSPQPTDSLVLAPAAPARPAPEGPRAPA
Method Notes: Displacement of [125I]-U2 from human recombinant urotensin2 receptor expressed in human Chem-2 cells after 4 hrs by scintillation proximity assay
Assay type: cell-based
pIC50: −log10 of the molar value.
Below, each entry is listed alongside its reported pIC50.
Quantity Kind: pIC50

| Smiles Data | Tgt | Quantity Kind | Value Comparator | Numeric Value |
| --- | --- | --- | --- | --- |
| CN1CC[C@H](Oc2cc(NCc3ccccc3Br)ccc2C(F)(F)F)C1 | Urotensin-2 receptor (Homo sapiens, UniProt Q9UKP6) | pIC50 | = | 6.09 |
| COc1cccc(CNc2ccc(C(F)(F)F)c(O[C@H]3CCN(C)C3)c2)c1 | Urotensin-2 receptor (Homo sapiens, UniProt Q9UKP6) | pIC50 | = | 6.16 |
| COc1cc(Br)c(S(=O)(=O)Nc2ccc(C(F)(F)F)c(OC[C@H]3CCCN3C)c2)cc1OC | Urotensin-2 receptor (Homo sapiens, UniProt Q9UKP6) | pIC50 | = | 6.10 |
| CN(C)CCOc1cc(NCc2ccccc2)ccc1Cl | Urotensin-2 receptor (Homo sapiens, UniProt Q9UKP6) | pIC50 | < | 5.00 |
| COc1cc(Br)c(S(=O)(=O)Nc2ccc(C(F)(F)F)c(OCCN(C)C)c2)cc1OC | Urotensin-2 receptor (Homo sapiens, UniProt Q9UKP6) | pIC50 | = | 6.87 |
| COc1cc(Br)c(S(=O)(=O)Nc2ccc(Cl)c(O[C@@H]3CCN(C)C3)c2)cc1OC | Urotensin-2 receptor (Homo sapiens, UniProt Q9UKP6) | pIC50 | = | 7.64 |
| CN1CC[C@H](Oc2cc(NCc3cccs3)ccc2C(F)(F)F)C1 | Urotensin-2 receptor (Homo sapiens, UniProt Q9UKP6) | pIC50 | = | 5.57 |
| COc1cc(Br)c(S(=O)(=O)Nc2ccc(C(F)(F)F)c(F)c2)cc1OC | Urotensin-2 receptor (Homo sapiens, UniProt Q9UKP6) | pIC50 | < | 5.00 |
| CN1CC[C@H](Oc2cc(NCc3c(Br)ccc4c3OCO4)ccc2C(F)(F)F)C1 | Urotensin-2 receptor (Homo sapiens, UniProt Q9UKP6) | pIC50 | = | 6.21 |
| CN(C)CCOc1cc(NCc2ccccc2Br)ccc1Cl | Urotensin-2 receptor (Homo sapiens, UniProt Q9UKP6) | pIC50 | = | 5.46 |

====

Tgt: Urotensin-2 receptor (Mus musculus)
Sequence (Q8VIH9 whole entry): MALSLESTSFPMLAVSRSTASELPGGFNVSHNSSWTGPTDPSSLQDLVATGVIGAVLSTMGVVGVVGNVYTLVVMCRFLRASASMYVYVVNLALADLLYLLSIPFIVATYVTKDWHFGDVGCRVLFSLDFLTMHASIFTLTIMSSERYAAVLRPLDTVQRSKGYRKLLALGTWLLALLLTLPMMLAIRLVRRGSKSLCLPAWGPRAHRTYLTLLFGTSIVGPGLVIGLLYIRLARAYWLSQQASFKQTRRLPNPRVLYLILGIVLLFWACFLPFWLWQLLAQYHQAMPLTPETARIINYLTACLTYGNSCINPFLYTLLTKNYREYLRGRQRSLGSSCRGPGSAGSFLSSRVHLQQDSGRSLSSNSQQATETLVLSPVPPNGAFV
Method Notes: Antagonist activity at mouse urotensin2 receptor assessed as inhibition of urotensin2-stimulated Ca2+ mobilization by cell-based assay
pIC50: −log10 of the molar value.
Measured pIC50 of individual entries

| Smiles Data | Tgt | pIC50 |
| --- | --- | --- |
| COc1cc(Br)c(S(=O)(=O)Cc2ccc(Cl)c(O[C@@H]3CCN(C)C3)c2)cc1OC | Urotensin-2 receptor (Mus musculus) | 5.33 |
| COc1cc(Br)c(CNc2ccc(C(F)(F)F)c(O[C@H]3CCN(C)C3)c2)cc1OC | Urotensin-2 receptor (Mus musculus) | 5.19 |

====

Method Notes: Solubility of the compound at pH 7.4
Format: physicochemical
Stated Conditions: buffer
Quantity Kind: solubility

| Smiles Data | Result |
| --- | --- |
| COc1cc(Br)c(S(=O)(=O)Cc2ccc(Cl)c(O[C@@H]3CCN(C)C3)c2)cc1OC | > 87 µg/mL |
| COc1cc(Br)c(CNc2ccc(C(F)(F)F)c(O[C@H]3CCN(C)C3)c2)cc1OC | > 52 µg/mL |

====

Tgt: Urotensin-2 receptor (Homo sapiens)
Method Notes: Antagonist activity at recombinant human urotensin2 receptor expressed in CHO cells assessed as inhibition of urotensin2-stimulated Ca2+ mobilization incubated 10 mins prior to urotensin2 stimulation measured after 10 mins by fluorometric analysis
Type: functional, cell-based

| Smiles Data | IC50 |
| --- | --- |
| Cc1cc(NC(=O)NCCN2CCC(O)(Cc3ccccc3)CC2)c2ccccc2n1 | 39 nM |

====

Method Notes: Solubility of the compound at pH 4.5
Type: physicochemical
Stated Conditions: buffer
Quantity Kind: solubility

| Smiles Data | Result |
| --- | --- |
| COc1cc(Br)c(CNc2ccc(C(F)(F)F)c(O[C@H]3CCN(C)C3)c2)cc1OC | > 52 µg/mL |
| COc1cc(Br)c(S(=O)(=O)Cc2ccc(Cl)c(O[C@@H]3CCN(C)C3)c2)cc1OC | > 87 µg/mL |

====

Tgt: Urotensin-2 receptor (Rattus norvegicus, UniProt P49684)
Sequence (P49684 whole entry): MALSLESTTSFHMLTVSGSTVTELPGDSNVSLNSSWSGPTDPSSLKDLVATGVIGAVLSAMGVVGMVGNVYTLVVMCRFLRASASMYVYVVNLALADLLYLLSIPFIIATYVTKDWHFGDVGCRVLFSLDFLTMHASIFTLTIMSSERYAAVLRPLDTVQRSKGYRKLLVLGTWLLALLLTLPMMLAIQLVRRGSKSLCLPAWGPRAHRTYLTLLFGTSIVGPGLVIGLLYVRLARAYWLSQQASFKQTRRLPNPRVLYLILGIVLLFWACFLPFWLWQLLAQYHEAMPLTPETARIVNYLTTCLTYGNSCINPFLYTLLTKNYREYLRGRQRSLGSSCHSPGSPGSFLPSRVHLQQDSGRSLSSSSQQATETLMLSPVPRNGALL
Method Notes: Antagonist activity at rat urotensin2 receptor assessed as inhibition of urotensin2-stimulated Ca2+ mobilization by cell-based assay
pIC50: −log10 of the molar value.
Quantity Kind: pIC50

| Smiles Data | Tgt | Quantity Kind | Numeric Value |
| --- | --- | --- | --- |
| COc1cc(Br)c(CNc2ccc(C(F)(F)F)c(O[C@H]3CCN(C)C3)c2)cc1OC | Urotensin-2 receptor (Rattus norvegicus, UniProt P49684) | pIC50 | 5.41 |
| COc1cc(Br)c(S(=O)(=O)Cc2ccc(Cl)c(O[C@@H]3CCN(C)C3)c2)cc1OC | Urotensin-2 receptor (Rattus norvegicus, UniProt P49684) | pIC50 | 5.70 |

====

Method Notes: Drug metabolism in rat liver microsomes relative to total liver blood flow
Type: ADME, Microsome
Stated Conditions: read-out: Drug metabolism

| Smiles Data | hepatic extraction ratio |
| --- | --- |
| COc1cc(Br)c(CNc2ccc(C(F)(F)F)c(O[C@H]3CCN(C)C3)c2)cc1OC | < 0.06 |

====

Method Notes: Drug metabolism in human liver microsomes relative to total liver blood flow
Format: ADME, Microsome
Stated Conditions: read-out: Drug metabolism
Decision: hepatic extraction ratio beneath 0.5 gives Y; hepatic extraction ratio meeting or exceeding 0.5 gives N.

| Compound | Category Label |
| --- | --- |
| COc1cc(Br)c(CNc2ccc(C(F)(F)F)c(O[C@H]3CCN(C)C3)c2)cc1OC | Y |
| COc1cc(Br)c(CNc2ccc(Cl)c(O[C@@H]3CCN(C)C3)c2)cc1OC | Y |
| COc1cc(Br)c(S(=O)(=O)Nc2ccc(Cl)c(O[C@@H]3CCN(C)C3)c2)cc1OC | N |
| COc1cc(Br)c(SCc2ccc(Cl)c(O[C@@H]3CCN(C)C3)c2)cc1OC | N |
| COc1cc(Br)c(CNc2ccc(Cl)c(O[C@H]3CCN(C)C3)c2)cc1OC | Y |
| Cc1cc(NC(=O)NCCN2CCC(O)(Cc3ccccc3)CC2)c2ccccc2n1 | N |
| COc1cc(Br)c([S+]([O-])Cc2ccc(Cl)c(O[C@@H]3CCN(C)C3)c2)cc1OC (some centres not stated) | N |

====

Tgt: Urotensin-2 receptor (Homo sapiens)
Method Notes: Antagonist activity at recombinant human urotensin2 receptor expressed in CHO cells assessed as inhibition of urotensin2-stimulated Ca2+ mobilization after 1 hr by FLIPR assay
Type: functional, cell-based
Quick reference: log10 of IC50 of the listed items.
Quantity Kind: log10 of IC50 (log10 of the value in µM)

| Smiles Data | log10 of IC50 |
| --- | --- |
| CN(C)CCOc1cc(NCc2ccccc2Br)ccc1Cl | 0.78 |
| CN1CC[C@H](Oc2cc(NCc3c(Br)ccc4c3OCO4)ccc2C(F)(F)F)C1 | 0.15 |
| COc1cccc(CNc2ccc(C(F)(F)F)c(O[C@H]3CCN(C)C3)c2)c1 | 0.05 |
| COc1cc(Br)c(S(=O)(=O)Nc2ccc(C(F)(F)F)c(OC[C@H]3CCCN3C)c2)cc1OC | -0.46 |
| COc1cc(Br)c(S(=O)(=O)Nc2ccc(Cl)c(O[C@@H]3CCN(C)C3)c2)cc1OC | -1.37 |
| COc1cc(Br)c(CNc2ccc(Cl)c(O[C@H]3CCN(C)C3)c2)cc1OC | 0.16 |
| COc1cc(Br)c(S(=O)(=O)Nc2ccc(C(F)(F)F)c(OCCN(C)C)c2)cc1OC | -1.00 |
| COc1cc(Br)c(CNc2ccc(Cl)c(OCCN(C)C)c2)cc1OC | 0.11 |
| CN1CC[C@H](Oc2cc(NCc3ccccc3Br)ccc2C(F)(F)F)C1 | 0.27 |
| COc1cc(Br)c(CNc2ccc(C(F)(F)F)c(O[C@H]3CCN(C)C3)c2)cc1OC | -0.72 |

====

Tgt: Urotensin-2 receptor (Homo sapiens, UniProt Q9UKP6)
Method Notes: Antagonist activity at recombinant human urotensin2 receptor expressed in CHO cells assessed as inhibition of urotensin2-stimulated Ca2+ mobilization after 1 hr by FLIPR assay
Type: functional, cell-based
pIC50: −log10 of the molar value.

| Smiles Data | pIC50 |
| --- | --- |
| CN(C)CCOc1cc(NCc2ccccc2C(F)(F)F)ccc1Cl | 6.12 |
| COc1cc(Br)c(CNc2ccc(Cl)c(O[C@@H]3CCN(C)C3)c2)cc1OC | 5.88 |
| CN1CC[C@H](Oc2cc(NCc3cc4c(cc3Br)OCO4)ccc2C(F)(F)F)C1 | 6.02 |
| CN1CC[C@H](Oc2cc(NCc3cccs3)ccc2C(F)(F)F)C1 | 5.70 |
